Each recorded value in this set is attributed to patent US10100076B2.

System: HCV replicon
Assay: HCV replicon system in Huh7 cells, replicon RNA by Q-RT-PCR (HCV ΔCt, ΔΔCt); further: test concentration or dose not given here
Assay type: cell-based, hepatitis C virus
Conditions: Table 25; HCV RNA ΔCt minus rDNA ΔCt
Readout Type: average ΔΔCt
Give your answer as a number; write no unit.

>  <Molecule>
Nc1ccn([C@@H]2O[C@H](CO)[C@H](Br)[C@H]2O)c(=O)n1 [β-D-AI]

>  <average ΔΔCt>
4.55

$$$$

Ask: Give the observed average ΔΔCt of O=c1[nH]c(=O)n([C@@H]2O[C@H](CO)[C@@H](O)[C@H]2O)cc1F [β-D-CC] for HCV replicon.
Result: 3.66

Ask: Report the value of average ΔΔCt obtained on HCV replicon for N=c1nc(N)ccn1[C@@H]1O[C@H](CO)[C@@H](O)[C@@H]1O [β-D-BL] .
Result: 0.65

Ask: Write down the reported average ΔΔCt (system: HCV replicon) of Nc1nc(Cl)c2ncn([C@H]3CS[C@@H](CO)O3)c2n1 [β-D-KB]
Result: 3.81

Ask: Write down measured average ΔΔCt (HCV replicon) for this molecule. OC[C@@H]1C=C(F)[C@H](n2cnc3c(Cl)ncnc32)O1 [β-D-FA]
Result: 0.78

Ask: State the measured average ΔΔCt (HCV replicon) of Nc1nc(SSc2nc(N)nc3c2ncn3[C@@H]2O[C@H](CO)[C@@H](O)[C@H]2O)c2ncn([C@@H]3O[C@H](CO)[C@@H](O)[C@H]3O)c2n1 [β-D-QA]
Result: 2.55

Ask: # return average ΔΔCt for N=c1ccn2c(n1)O[C@H]1[C@H](O)[C@@H](CO)O[C@H]12 [β-D-ME] , test system: HCV replicon
Result: 1.36

Ask: # lookup: HCV replicon average ΔΔCt, key = N=c1nc2n(cc1F)[C@@H]1O[C@H](CO)[C@@H](O)[C@@H]1O2 [β-D-MF]
Result: 1.65

Ask: Given Nc1ncnc2c([C@@H]3O[C@H](CO)[C@@H](O)[C@H]3O)cnn12 [β-D-UA] , report its average ΔΔCt on HCV replicon.
Result: 2.41
